Origin of values: the supplement of paper PMC9112550

- Tested on: Escherichia coli TOP10;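 further: peptides expressed intracellularly from a pBAD plasmid library in pooled LB shake-flask culture, induced with 0.3% L-arabinose, DNA abundance read by NGS, three biological replicates, DESeq2 with apeglm shrinkage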
- protocol: shrunken log2 fold change of peptide-encoding DNA abundance (4.5 h post-induction vs induction); higher = less antimicrobial activity (less host growth inhibition)
- assay conditions: time post-induction: 4.5 h; library: site-saturation at positions 5, 18, 19, 20
Binning scheme for shrunken log2 fold change: band A (below -0.02), band B (-0.02 to below 0.09), band C (0.09 or more)

sequence input: RRIRRRPPRLPRPRPRPRHPPRP
label value: band C
--
sequence input: RRIRMRPPRLPRPRPRPDINPRP
label value: band C
--
sequence input: RRIRIRPPRLPRPRPRPRMGPRP
label value: band A
--
sequence input: RRIRMRPPRLPRPRPRPIAVPRP
label value: band B

Bin? "RRIRWRPPRLPRPRPRPWPKPRP" band C

Quick check: band for "RRIRRRPPRLPRPRPRPLQDPRP" band B

Band for "RRIRERPPRLPRPRPRPVTTPRP" ? band A

Record "RRIRERPPRLPRPRPRPTEKPRP" — which class? band C

Input "RRIRMRPPRLPRPRPRPMWWPRP" ; output its category band B

Which bin, given its shrunken log2 fold change, does "RRIRPRPPRLPRPRPRPFDQPRP" occupy? band A

In plain terms, what class is "RRIRARPPRLPRPRPRPDGMPRP" ? band A

Categorize the following entry: "RRIRCRPPRLPRPRPRPNGAPRP" band B

Form field 'band' for "RRIRTRPPRLPRPRPRPQQYPRP" band A

Assign a bin to "RRIRLRPPRLPRPRPRPRCVPRP" band B
